Overview of reported protein stability index across a group of variants:
B1: TBC1D10A (parent)
chain: WCLVQICEKYLPGYYSEKLEAIQL

Variants of: B1
assayComment: protein stability index of a GFP-peptide fusion (GPS, HEK-293T) (PSI 1-6); higher = more stable;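 further: lentivirally expressed fusions sorted by FACS into six bins by GFP to DsRed ratio, PSI derived from sequencing read proportions per bin multiplied by bin number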
details: c terminus: a fixed tail appended

{"mutationAnnotation": "E8Y", "protein stability index": 3.51}
{"mutationAnnotation": "Y15C", "protein stability index": 2.35}
{"mutationAnnotation": "E8T", "protein stability index": 2.34}
{"mutationAnnotation": "L24W", "protein stability index": 2.98}
{"mutationAnnotation": "W1T", "protein stability index": 3.45}
{"mutationAnnotation": "L24V", "protein stability index": 2.38}
{"mutationAnnotation": "Y15W", "protein stability index": 2.85}
{"mutationAnnotation": "W1H", "protein stability index": 2.83}
{"mutationAnnotation": "V4H", "protein stability index": 1.59}
{"mutationAnnotation": "A21M", "protein stability index": 3.73}
{"mutationAnnotation": "Y14P", "protein stability index": 2.61}
{"mutationAnnotation": "C7D", "protein stability index": 2.31}
{"mutationAnnotation": "I22E", "protein stability index": 3.23}
{"mutationAnnotation": "L19V", "protein stability index": 2.92}
{"mutationAnnotation": "S16W", "protein stability index": 3.94}
{"mutationAnnotation": "I22D", "protein stability index": 3.23}
{"mutationAnnotation": "L3N", "protein stability index": 1.88}
{"mutationAnnotation": "L11P", "protein stability index": 3.62}
{"mutationAnnotation": "K9P", "protein stability index": 2.17}
{"mutationAnnotation": "Q23A", "protein stability index": 4.11}
{"mutationAnnotation": "K18D", "protein stability index": 1.92}
{"mutationAnnotation": "G13S", "protein stability index": 2.02}
{"mutationAnnotation": "E8C", "protein stability index": 2.85}
{"mutationAnnotation": "G13Y", "protein stability index": 5.24}
{"mutationAnnotation": "L11S", "protein stability index": 2.68}
{"mutationAnnotation": "Q5L", "protein stability index": 3.52}
{"mutationAnnotation": "E17I", "protein stability index": 2.74}
{"mutationAnnotation": "Q5M", "protein stability index": 2.16}
{"mutationAnnotation": "V4L", "protein stability index": 2.19}
{"mutationAnnotation": "K9F", "protein stability index": 3.33}
{"mutationAnnotation": "Y10I", "protein stability index": 1.18}
{"mutationAnnotation": "K18R", "protein stability index": 2.22}
{"mutationAnnotation": "E8L", "protein stability index": 4.41}
{"mutationAnnotation": "E20T", "protein stability index": 1.47}
{"mutationAnnotation": "P12N", "protein stability index": 4.27}
{"mutationAnnotation": "E20Q", "protein stability index": 2.79}
{"mutationAnnotation": "Y10K", "protein stability index": 2.62}
{"mutationAnnotation": "C7N", "protein stability index": 3.08}
{"mutationAnnotation": "E17K", "protein stability index": 1.66}
{"mutationAnnotation": "P12T", "protein stability index": 1.62}
{"mutationAnnotation": "K9A", "protein stability index": 1.11}
{"mutationAnnotation": "C2S", "protein stability index": 1.67}
{"mutationAnnotation": "K18I", "protein stability index": 2.1}
{"mutationAnnotation": "L3G", "protein stability index": 3.3}
{"mutationAnnotation": "Q23R", "protein stability index": 2.52}
{"mutationAnnotation": "A21E", "protein stability index": 3.38}
{"mutationAnnotation": "E17Q", "protein stability index": 1.94}
{"mutationAnnotation": "W1V", "protein stability index": 2.6}
{"mutationAnnotation": "E20A", "protein stability index": 2.21}
{"mutationAnnotation": "A21H", "protein stability index": 3.56}
{"mutationAnnotation": "W1P", "protein stability index": 1.93}
{"mutationAnnotation": "E20H", "protein stability index": 3.07}
{"mutationAnnotation": "Q23E", "protein stability index": 2.44}
{"mutationAnnotation": "K18H", "protein stability index": 3.99}
{"mutationAnnotation": "E17H", "protein stability index": 1.77}
{"mutationAnnotation": "L19E", "protein stability index": 4.16}
{"mutationAnnotation": "Q5F", "protein stability index": 2.92}
{"mutationAnnotation": "C7M", "protein stability index": 2.57}
{"mutationAnnotation": "L19Q", "protein stability index": 3.88}
{"mutationAnnotation": "P12Y", "protein stability index": 2.66}
{"mutationAnnotation": "L11I", "protein stability index": 3.03}
{"mutationAnnotation": "Q23F", "protein stability index": 3.75}
{"mutationAnnotation": "S16Y", "protein stability index": 2.7}
{"mutationAnnotation": "L11C", "protein stability index": 2.72}
{"mutationAnnotation": "V4G", "protein stability index": 2.45}
{"mutationAnnotation": "W1F", "protein stability index": 2.61}
{"mutationAnnotation": "V4E", "protein stability index": 2.09}
{"mutationAnnotation": "A21P", "protein stability index": 3.77}
{"mutationAnnotation": "L3D", "protein stability index": 1.29}
{"mutationAnnotation": "E20I", "protein stability index": 2.3}
{"mutationAnnotation": "P12I", "protein stability index": 2.32}
{"mutationAnnotation": "V4Q", "protein stability index": 1.48}
{"mutationAnnotation": "I22S", "protein stability index": 1.72}
{"mutationAnnotation": "S16H", "protein stability index": 1.6}
{"mutationAnnotation": "Q5P", "protein stability index": 2.69}
{"mutationAnnotation": "I22M", "protein stability index": 2.21}
{"mutationAnnotation": "K9T", "protein stability index": 3.21}
{"mutationAnnotation": "W1A", "protein stability index": 3.88}
{"mutationAnnotation": "I6G", "protein stability index": 1.73}
{"mutationAnnotation": "E17L", "protein stability index": 3.48}
{"mutationAnnotation": "Y10P", "protein stability index": 2.35}
{"mutationAnnotation": "C7T", "protein stability index": 3.5}
{"mutationAnnotation": "C2N", "protein stability index": 3.07}
{"mutationAnnotation": "K18C", "protein stability index": 3.08}
{"mutationAnnotation": "E20S", "protein stability index": 2.64}
{"mutationAnnotation": "V4M", "protein stability index": 3.23}
{"mutationAnnotation": "E17P", "protein stability index": 2.03}
{"mutationAnnotation": "L3S", "protein stability index": 1.88}
{"mutationAnnotation": "Q5S", "protein stability index": 2.72}
{"mutationAnnotation": "E8Q", "protein stability index": 4.87}
{"mutationAnnotation": "L3P", "protein stability index": 1.5}
